Data provenance is paper PMC5869772.

Target: BATF2 (bZIP);JUNB (human;human, UniProt Q8N1L9;P17275 1-142;148-347, |)
Sequence 1: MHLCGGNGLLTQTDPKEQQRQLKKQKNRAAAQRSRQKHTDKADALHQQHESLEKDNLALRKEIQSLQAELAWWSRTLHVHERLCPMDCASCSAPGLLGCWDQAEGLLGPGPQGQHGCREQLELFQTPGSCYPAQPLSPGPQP
Sequence 2: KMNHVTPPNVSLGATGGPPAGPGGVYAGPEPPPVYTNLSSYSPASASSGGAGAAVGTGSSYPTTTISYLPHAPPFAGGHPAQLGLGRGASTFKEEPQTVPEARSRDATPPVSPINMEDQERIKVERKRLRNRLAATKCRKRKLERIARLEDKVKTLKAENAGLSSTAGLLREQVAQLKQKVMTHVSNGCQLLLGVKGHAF
Assay: Spec-seq (EMSA and sequencing of bound and unbound bands); 100 nM BATFx-JUNB, 1 uM dsDNA library, 50 mM K acetate, 20 mM Tris-acetate, 10 mM Mg acetate, 100 ug/ml BSA, pH 7.9, 10% glycerol, 30 min on ice; native 9% PAGE at 4 C; low values mean tight binding
Details: protein: recombinant;recombinant; tags: N-terminal mCherry-TEV, cleaved off;C-terminal 6His; copies: 1;1; dsDNA, one strand shown
Answer each item with its documented binding signal.
Give just the number in kT; leave the unit off.

Q: What does the record list as binding signal for GATAGTCTCATTTTCACCCCGTGAAATGACTAAATTGTTCCATTACAGTATCTGT ?
A: 0.513

Q: Look at this sequence and give its reported binding signal. GATAGTCTCATTTTCACCCCGTGAAATGAAGTCATTGTTCCATTACAGTATCTGT
A: 0.0362

Q: Quick check: binding signal of GATAGTCTCATTTTCACCCCGTGAAATGAGCCATTTGTTCCATTACAGTATCTGT ?
A: 1.26

Q: Give the measured binding signal of GATAGTCTCATTTTCACCCCGTGAAATGAGTCGCTTGTTCCATTACAGTATCTGT .
A: 1.18

Q: Which binding signal reading was recorded for the sequence GATAGTCTCATTTTCACCCCGTGAAATGACTAACTTGTTCCATTACAGTATCTGT ?
A: 0.462

Q: Item under review: GATAGTCTCATTTTCACCCCGTGAAAACGAGTCATTGTTCCATTACAGTATCTGT . Reported binding signal?
A: -0.0168

Q: Bench note: what binding signal did GATAGTCTCATTTTCACCCCGTGAAAGTTAGTCATTGTTCCATTACAGTATCTGT show?
A: -0.0778

Q: Please look up its binding signal: GATAGTCTCATTTTCACCCCGTGAAATAGAGTCATTGTTCCATTACAGTATCTGT
A: 0.163

Q: Tell me the measured binding signal of GATAGTCTCATTTTCACCCCGTGAAATGACGTGATTGTTCCATTACAGTATCTGT , please.
A: -0.181

Q: What value of measured binding signal is listed for GATAGTCTCATTTTCACCCCGTGAAACGAGTCATTTGTTCCATTACAGTATCTGT ?
A: 0.283

Q: # input sequence: GATAGTCTCATTTTCACCCCGTGAAAGCGAGTCATTGTTCCATTACAGTATCTGT ; wanted: its binding signal
A: 0.234

Q: Entry GATAGTCTCATTTTCACCCCGTGAAATGAGGCAATTGTTCCATTACAGTATCTGT : reported binding signal = ?
A: 1.12

Q: # binding signal lookup, item GATAGTCTCATTTTCACCCCGTGAAATGATTCATTTGTTCCATTACAGTATCTGT
A: -0.369
